# tested_on: T1, human TIGIT over-expressed on cells (human, UniProt Q495A1 22-244)
# T1 construct: also called CHO-K1/human TIGIT cells; CHO cells expressing human TIGIT
# T1 sequence: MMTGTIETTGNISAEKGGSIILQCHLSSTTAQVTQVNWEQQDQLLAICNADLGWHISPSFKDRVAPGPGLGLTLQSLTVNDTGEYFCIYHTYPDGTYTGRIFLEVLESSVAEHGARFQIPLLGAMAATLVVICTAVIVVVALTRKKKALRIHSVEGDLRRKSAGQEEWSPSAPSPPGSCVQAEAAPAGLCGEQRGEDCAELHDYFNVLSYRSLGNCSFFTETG
# assay_notes: competition FACS, CHO cells expressing human TIGIT; competitor PVR recombinant protein
value_kind: Bottom (best-fit)
Just the number, please, no unit after it.

Solved cases below.
binder: 64G1E9B4VH1_VL1.M1 (antibody, human IgG1, V domains shown, Humanized antibody, variable domains fused with the constant region of human IgG1; also called 64G1VH1_VL1.M1) VH: EVQLVQSGAEVKKPGSSVKVSCKASGYTFTEHVIHWVRQAPGQGLEWMGGFNPNHDGTIYNQIFRGRVTITADKSTSTAYMELSSLRSEDTAVYYCARAAKLLFAMDYWGQGTTVTVSS VL: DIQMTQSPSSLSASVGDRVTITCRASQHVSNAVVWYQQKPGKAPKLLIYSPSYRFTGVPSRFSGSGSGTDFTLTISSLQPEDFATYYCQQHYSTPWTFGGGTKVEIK
Bottom (best-fit): 139

binder: 64G1E9B4 chimeric (antibody, V domains shown, also called 64G1 Chimeric) VH: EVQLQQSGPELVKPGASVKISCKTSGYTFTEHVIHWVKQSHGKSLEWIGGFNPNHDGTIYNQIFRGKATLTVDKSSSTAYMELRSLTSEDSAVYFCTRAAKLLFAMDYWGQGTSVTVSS VL: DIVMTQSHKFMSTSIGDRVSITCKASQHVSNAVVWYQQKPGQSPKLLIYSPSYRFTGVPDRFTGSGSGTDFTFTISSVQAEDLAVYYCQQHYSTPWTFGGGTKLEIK
Bottom (best-fit): 197

binder: 64G1E9B4VH1.M1_VL1.M1 (antibody, human IgG1, V domains shown, Humanized antibody, variable domains fused with the constant region of human IgG1; also called 64G1VH1.M1_VL1.M1) VH: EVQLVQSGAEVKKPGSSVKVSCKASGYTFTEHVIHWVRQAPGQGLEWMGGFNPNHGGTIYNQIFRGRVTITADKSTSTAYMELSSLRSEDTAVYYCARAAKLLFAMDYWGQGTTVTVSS VL: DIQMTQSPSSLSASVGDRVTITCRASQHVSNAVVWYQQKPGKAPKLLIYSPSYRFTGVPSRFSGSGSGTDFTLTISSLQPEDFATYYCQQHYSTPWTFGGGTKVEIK
Bottom (best-fit): 201

According to the records, this binder 100C4E7D11 chimeric (antibody, V domains shown, also called 100C4 Chimeric) VH: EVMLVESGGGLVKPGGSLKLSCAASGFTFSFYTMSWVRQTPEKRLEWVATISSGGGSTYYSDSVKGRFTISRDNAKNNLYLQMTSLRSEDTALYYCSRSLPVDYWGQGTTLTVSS VL: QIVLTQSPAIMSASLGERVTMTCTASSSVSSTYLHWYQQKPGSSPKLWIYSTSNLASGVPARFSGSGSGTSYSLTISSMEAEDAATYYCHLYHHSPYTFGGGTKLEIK displays Bottom (best-fit) of 170

According to the records, this binder 100C4E7D11VH1_VL1 (antibody, V domains shown, Humanized antibody, variable domains fused with the constant region of human IgG1; also called 100C4VH1_VL1) VH: EVQLVESGGGLVKPGGSLRLSCAASGFTFSFYTMSWVRQAPGKGLEWVSTISSGGGSTYYSDSVKGRFTISRDNAKNSLYLQMNSLRAEDTAVYYCARSLPVDYWGQGTTVTVSS VL: EIVLTQSPGTLSLSPGERATLSCTASSSVSSTYLHWYQQKPGQAPRLLIYSTSNLASGIPDRFSGSGSGTDFTLTISRLEPEDFAVYYCHLYHHSPYTFGGGTKVEIK displays Bottom (best-fit) of 150
